Let's look at some sequences and their measured folding enthalpy.
- protocolSummary: folding enthalpy; higher = less favourable; fluorescence melt of hairpins on a sequencing array, two-state fit
- runParameters: sodium 0.088 M
Express the result in kcal/mol but write the number alone.

// solved cases for folding enthalpy follow
sequenceEntry	folding enthalpy / kcal/mol
GTCTACGAAAGTAGGAC ((((((....))).)))	-16.5
GTTTGGGGAAACCTGAAC (((..((....))..)))	-16
GATCGGAACTCCGATC ((((((....))))))	-45.1
GCTTGGCGAAAGCCGTGC ((..(((....)))..))	-15.3

Find the recorded folding enthalpy belonging to GATCACTTGGTGATC ((((((...)))))) and report it.
-37.5

Find the recorded folding enthalpy belonging to GGAGCCGAAAGGCAATCC ((((((....)))..))) and report it.
-11.2

Find the recorded folding enthalpy belonging to GCGTATACACGC ((((....)))) and report it.
-22.8

Find the recorded folding enthalpy belonging to TAACCGAAAGGTTA (((((....))))) and report it.
-15.2

Find the recorded folding enthalpy belonging to GTATGTGGAAACATATAC ((((.((....)).)))) and report it.
-23.1

Find the recorded folding enthalpy belonging to GATCGTCGGCACGATC ((((((....)))))) and report it.
-21.4

* * *

- protocolSummary: melting temperature; fluorescence melt of hairpins on a sequencing array, two-state fit, raised by 9.35 °C to match UV melts
- runParameters: sodium 0.088 M
Let's look at some sequences and their measured Tm.
Express the result in °C but write the number alone.

// solved cases for Tm follow
sequenceEntry	unitAbbreviation	Tm
GTCCCCGAAAGGGCGGAC ((((((....)))..)))	°C	42.8
GGTAGGGGAAACCCTGCC ((.((((....)))).))	°C	53.6
GCGCTGCGAAAGCCCCGC (((..((....))..)))	°C	41.5
GAAGAGGGAAACCTCTCC (.(((((....))))).)	°C	34.2
GAGCACGAAAGTGGGCTC ((((((....)))..)))	°C	54.7

Find the recorded Tm belonging to GCATATGGAAACATGTGC (((.(((....))).))) and report it.
49

Find the recorded Tm belonging to GCAGACGAAAGTCTCTGC ((((((....)))..))) and report it.
44.1

Find the recorded Tm belonging to GCAGCGGGAAACTGCTGC (((((.(....).))))) and report it.
66

Find the recorded Tm belonging to GGACTCGGAAACGAGCCC ((.((((....)))).)) and report it.
53.5

Find the recorded Tm belonging to GTCTACCGAAAGGTTGAC (((.(((....))).))) and report it.
52.6

Find the recorded Tm belonging to GATCTGTTTCCAGATC ((((((....)))))) and report it.
49.3

Find the recorded Tm belonging to CAACCAGAAATGGTTG ((((((....)))))) and report it.
53.1

Find the recorded Tm belonging to GCATGCGAAAGCAAGTGC ((((((....)))..))) and report it.
46.8

Find the recorded Tm belonging to GCTTGCGAAAGCACAAGC ((((((....)))..))) and report it.
45.3

Find the recorded Tm belonging to GATGCTGGAAACAGCATC (((((((....))))))) and report it.
66.9

Find the recorded Tm belonging to GGCGACGAAAGTCTAGCC ((((((....)))..))) and report it.
54.5

Find the recorded Tm belonging to GCTTAGCGAAAGCTCTGC ((..(((....)))..)) and report it.
37.8

* * *

- protocolSummary: folding enthalpy; higher = less favourable; fluorescence melt of hairpins on a sequencing array, two-state fit
- runParameters: sodium 0.088 M
Label rule, in plain words: folding enthalpy of -30 kcal/mol and up is Fulfilled, under -30 kcal/mol is Not fulfilled.

// below: answered sequences
sequenceEntry	assignedLabel
GATCCAGCCGTGGATC ((((((....))))))	Not fulfilled
GATCAAAGTTTGATC ((((((...))))))	Fulfilled
GAACTAGGAAACTAGCTC ((.((((....)))).))	Fulfilled
GTTGCCGAAAGGCTAAC ((((((....))).)))	Fulfilled
GCGTCGCGAAAGCGGGGC ((..(((....)))..))	Fulfilled

Exam item: decide whether the reported folding enthalpy for GCACTCGGAAACGAGCAC (..((((....))))..) is at least -30 kcal/mol.
Fulfilled

Exam item: decide whether the reported folding enthalpy for GCGCGGCGAAAGCAGGGC ((.(.((....)).).)) is at least -30 kcal/mol.
Fulfilled

Exam item: decide whether the reported folding enthalpy for GATCCACGGTGGATC ((((((...)))))) is at least -30 kcal/mol.
Not fulfilled

Exam item: decide whether the reported folding enthalpy for GCATCTCGAAAGAGTTGC (((.(((....))).))) is at least -30 kcal/mol.
Not fulfilled

Exam item: decide whether the reported folding enthalpy for GCGGGATCCCGC ((((....)))) is at least -30 kcal/mol.
Not fulfilled

Exam item: decide whether the reported folding enthalpy for CGCTCGGAAACGACAGCG ((((((....)))..))) is at least -30 kcal/mol.
Fulfilled

Exam item: decide whether the reported folding enthalpy for GGCGACTCGAAAGAGGCC (((..(((....)))))) is at least -30 kcal/mol.
Fulfilled

* * *

- protocolSummary: folding enthalpy; higher = less favourable; fluorescence melt of hairpins on a sequencing array, two-state fit
- runParameters: sodium 0.088 M
Label rule, in plain words: folding enthalpy of -20 kcal/mol and up is satisfied, under -20 kcal/mol is not satisfied.

// below: answered sequences
sequenceEntry	assignedLabel
GTATCGGGAAACTGGTAC (((.(.(....).).)))	satisfied
GATCGATTTTTCGATC ((((((....))))))	not satisfied
GGGTGTGGAAACGCATCC ((.((.(....).)).))	not satisfied
GATTGTGGAAACATGATC (((..((....))..)))	satisfied
GACATCGGAAACGATATC ((.((((....)))).))	not satisfied

# evaluate next
Exam item: decide whether the reported folding enthalpy for GCACTGCGAAAGCAGCGC ((.((((....)))).)) is at least -20 kcal/mol.
not satisfied

* * *

Let's look at some sequences and their measured Tm.
- protocolSummary: melting temperature; fluorescence melt of hairpins on a sequencing array, two-state fit, raised by 9.35 °C to match UV melts
- runParameters: sodium 0.088 M
Express the result in °C but write the number alone.

// solved cases for Tm follow
sequenceEntry	Tm / °C
GTGATCGAAAGATGCAC ((((((....))).)))	38.7
GCTCGGCGAAAGCTGTGC ((.(.((....)).).))	60.2
TTCATGAAAATGAA (((((....)))))	28.9
GGGACGGGAAACCACCCC (((..((....))..)))	32.1
CGCCCGGAAACGGTTGCG ((((((....)))..)))	48.6
GATCCGCTGCCGGATC ((((((....))))))	57

Find the recorded Tm belonging to GATCTCTGCAGAGATC ((((((....)))))) and report it.
57

Find the recorded Tm belonging to GATCCAAATCTGGATC ((((((....)))))) and report it.
47.4

Find the recorded Tm belonging to GGCGACGGAAACATCGCC (((((.(....).))))) and report it.
55.4

* * *

- protocolSummary: melting temperature; fluorescence melt of hairpins on a sequencing array, two-state fit, raised by 9.35 °C to match UV melts
- runParameters: sodium 0.088 M
Let's look at some sequences and their measured Tm.
Express the result in °C but write the number alone.

sequenceEntry	Tm (°C)
GATCCTCCATAGGATC ((((((....))))))	51.1
GGATCACGAAAGTGTTCC (((.(((....))).)))	50.8
GATCAGCAGACTGATC ((((((....))))))	50.3

Next item in the queue.
Find the recorded Tm belonging to GACTCAGGAAACTGGGTC (((.(((....))).))) and report it.
49.2

* * *

- protocolSummary: folding enthalpy; higher = less favourable; fluorescence melt of hairpins on a sequencing array, two-state fit
- runParameters: sodium 0.088 M
Let's look at some sequences and their measured folding enthalpy.
Express the result in kcal/mol but write the number alone.

Find the recorded folding enthalpy belonging to GCCCGCGAAAGCGGTGGC ((((((....)))..))) and report it.
-12.2

Find the recorded folding enthalpy belonging to GCGGTCGGAAACGGTCGC (((..((....))..))) and report it.
-25.1

Find the recorded folding enthalpy belonging to GCTTCGTCGAAAGACAGC (((..(((....)))))) and report it.
-11.5

Find the recorded folding enthalpy belonging to GTCCTTGCGAAAGCAGAC (((..(((....)))))) and report it.
-12.3

Find the recorded folding enthalpy belonging to GCGATTCGTCGC ((((....)))) and report it.
-28.4

Find the recorded folding enthalpy belonging to GGCCTTGGAAACGAGGTC (.(((.(....).))).) and report it.
-31.3

Find the recorded folding enthalpy belonging to GTCCGGCGAAAGCCGAC (((.(((....)))))) and report it.
-9.75

Find the recorded folding enthalpy belonging to GTCGACGGAAACACCGAC ((((..(....)..)))) and report it.
-24.8

Find the recorded folding enthalpy belonging to GAGGGCGAAAGCCGCTC ((((((....))).))) and report it.
-13

Find the recorded folding enthalpy belonging to GATCGGGGGGCCGATC ((((((....)))))) and report it.
-53.6
